The measured values listed here are drawn from PubChem BioAssay AID1159580.

# test.summary: chemical genetic growth profiling, strain panel (AID 1159580);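 further: tested at 20 µM; growth read once vehicle control cultures reached saturation at 30 °C; 1 = growth at the plate median or of vehicle wells; lower values mean less growth of the strain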
# run.conditions: S. cerevisiae deletion strains, growth OD, locus YOR083W, strain WHI5, hits give low values
In all, about 5,500 compounds went through this assay and about 2,000 (36%) were called active. Inconclusive results (about 18%) are left out. The list shows a part of the results.

[
  {
    "compound": "CC1=CCc2c(cc3oc(C)cc(=O)c3c2O)OC1",
    "normalized growth": 0.951
  },
  {
    "compound": "CCCCOc1cc(CC2CNC(=O)N2)ccc1OC (centres undefined)",
    "normalized growth": 0.944
  },
  {
    "compound": "CC1(C)O[C@@H]2CC3C4CCC5=CC(=O)C=C[C@]5(C)[C@@]4(F)[C@@H](O)C[C@]3(C)[C@]2(C(=O)CO)O1 (some centres undefined)",
    "normalized growth": 0.956
  },
  {
    "compound": "[N-]=[N+]=CC(=O)OCC(N)C(=O)O (centres undefined)",
    "normalized growth": 0.992
  }
]
